tested on: U-251; assay: NCI tumour cell line growth inhibition, 48 h
Active and inactive are the calls of the source. Cut-off read from the data, not from the text of the source: active = GI50 up to about 1.1 µM and inactive = higher.
RECORDED ENDPOINT: GI50

| COMPOUND | RECORDED ENDPOINT | RECORDED VALUE |
| --- | --- | --- |
| Cc1cn(CCCCCOC(=O)NC(CCCNC(=N)N)C(=O)O)c(=O)[nH]c1=O (stereo unspecified) | GI50 | 50.2 µM (inactive) |
| O=C(O)CNC(=O)c1ccc([As](=O)(O)O)cc1 | GI50 | > 100 µM (inactive) |
| Nc1cc2ncnn2c(SCC(=O)N/N=C/C(Br)=C\c2ccccc2)n1 | GI50 | 5.24 µM (inactive) |
| CN(C)CCOc1cc2c(c3ccccc13)-c1ccccc1C2=O | GI50 | 2.16 µM (inactive) |
| COC(=O)n1c(CBr)c(Br)c2ccccc21 | GI50 | 27 µM (inactive) |
| CN(C)CCNC(=O)c1cc(Cl)cc2cc3ccccc3nc12 | GI50 | 1.64 µM (inactive) |
